Assay: Human HepG2 cell viability assay in 384 well format
Assay type: toxicity, cell-based
Design: dose 125 nL, time 70.5 hour; concentration not given beside the values
Settings: HepG2 cells, read-out: Inhibition
resultType: cytotoxicity at 70.5 h (%)
Answers are plain numbers, in %.

Examples with their reported cytotoxicity at 70.5 h follow.
[
  {
    "compound": "CCc1nc(N)nc(N2CCCC3(CCOCC3)C2)c1C",
    "unitInfo": "%",
    "valueMeasured": -7.63
  },
  {
    "compound": "OCc1cc2ccccc2nc1NCC1(O)CCC1",
    "unitInfo": "%",
    "valueMeasured": -8.77
  },
  {
    "compound": "CC(C#N)CN(C)C(=O)CCNC(=O)C(C)(C)C (centres undefined)",
    "unitInfo": "%",
    "valueMeasured": 0.0301
  },
  {
    "compound": "CC(=O)N1C[C@@H](F)[C@@H](OCc2nc3cc(C)c(C)cc3[nH]2)C1",
    "unitInfo": "%",
    "valueMeasured": -0.883
  },
  {
    "compound": "CC(=O)N1CCOC(c2nc(N(C)C)ncc2-c2cccc(F)c2)C1 (centres undefined)",
    "unitInfo": "%",
    "valueMeasured": -7.24
  },
  {
    "compound": "CCN1CCOC(CNCc2cnc(C(C)(C)C)s2)C1 (centres undefined)",
    "unitInfo": "%",
    "valueMeasured": -5.25
  },
  {
    "compound": "CC(C)CN1CC[C@@H]2[C@@H]1CCN2S(=O)(=O)c1cn(C)cn1",
    "unitInfo": "%",
    "valueMeasured": -10.9
  },
  {
    "compound": "CC(Cc1c(F)cccc1F)NC(=O)CN(CC(N)=O)C(C)C (centres undefined)",
    "unitInfo": "%",
    "valueMeasured": -2.04
  },
  {
    "compound": "CCOC(=O)c1sc2ccsc2c1CNC(=O)C(C)OC (centres undefined)",
    "unitInfo": "%",
    "valueMeasured": 3.36
  },
  {
    "compound": "CCOc1cccc(CNC(=O)NC2CC=CC2)c1OC(F)F",
    "unitInfo": "%",
    "valueMeasured": 0.101
  }
]

For each entry beneath this line, provide reported cytotoxicity at 70.5 h.
1. CC(Oc1ccc(F)c(F)c1)C(=O)N(CC(N)=O)C1CCCC1 (centres undefined)
2. C[C@@H]1CN(Cc2nc(C(N)=O)no2)CC[C@@]1(O)C1CC1
3. CC(C)N1CCC2(CC1)C(=O)N(c1cccnc1)c1ccc(F)cc12
4. NS(=O)(=O)c1cnn(CCC(=O)N(Cc2ccccc2)C2CC2)c1
5. CCS(=O)(=O)N1CCC2(CC1)CC(OCC1CC1)CO2 (centres undefined)
6. O=C(COC[C@]12COC[C@H]1CN(C1CCC1)C2)N1CCCC1
7. Cc1ccc(-c2cccc(-c3ccn(CCN4CCCC4)n3)c2)nn1

Solution:
1. 27.6
2. -14.8
3. -0.653
4. -7.26
5. -7.89
6. 3.04
7. -6.29
